Provenance of the data: patent US20220144815A1

Experiment: Log P by HPLC on reversed phase columns, method [a] (EEC directive 79/831 Annex V.A8)
Format: physicochemical
Details: reversed phase HPLC column; method [a], HPLC on reversed phase columns; read-out: logP
Sorting guide: entries reporting chromatographic logP beneath 3 go in the MET pile, the rest go in the NOT MET pile.

Query: Lab log: compare recorded chromatographic logP with 3; is it strictly lower for `CC(C)(Nc1ncc(-c2nnc(C(F)F)o2)cn1)c1cccnc1` ?
Response: MET

Query: Lab log: compare recorded chromatographic logP with 3; is it strictly lower for CC(Nc1ncc(-c2nnc(C(F)F)o2)cn1)C1CCCCC1 (racemic) ?
Response: NOT MET

Query: Lab log: compare recorded chromatographic logP with 3; is it strictly lower for CC(Nc1ncc(-c2nnc(C(F)F)o2)cn1)c1cccc(Cl)c1 (racemic) ?
Response: NOT MET

Query: Lab log: compare recorded chromatographic logP with 3; is it strictly lower for `Cc1ccccc1C(C)(C)Nc1ncc(-c2nnc(C(F)F)o2)cn1` ?
Response: NOT MET

Query: Lab log: compare recorded chromatographic logP with 3; is it strictly lower for `Fc1ccc(C2(Nc3ncc(-c4nnc(C(F)F)o4)cn3)CCC2)cc1` ?
Response: NOT MET

Query: Lab log: compare recorded chromatographic logP with 3; is it strictly lower for `Cc1ccnc(C2(Nc3ncc(-c4nnc(C(F)F)o4)cn3)CC2)c1` ?
Response: MET

Query: Lab log: compare recorded chromatographic logP with 3; is it strictly lower for CC(Cc1ccc(F)cc1)Nc1ncc(-c2nnc(C(F)F)o2)cn1 (racemic) ?
Response: NOT MET

Query: Lab log: compare recorded chromatographic logP with 3; is it strictly lower for `FC(F)Oc1ccccc1C1(Nc2ncc(-c3nnc(C(F)F)o3)cn2)CC1` ?
Response: NOT MET
